Measured Kd by item
# target or system: T1, biotinylated ADDL (bADDL) (UniProt P05067 672-713, N-terminal biotin)
# T1 construct: domain: Aβ1-42; Panning and ELISA speak of 10% biotinylated ADDL; also called bADDLs; high molecular weight bADDL
# protocol description: BIACORE, Fab against bADDL
Reply with just the number (in nM).

Exercise: I would be grateful if you could share the reported Kd for 4a-C9 Fab (Fab, V domains shown) VH: QVTLKESGPALVKPTQTLTLTCTLSGFSLSTSGMGVGWIRQPPGKALEWLAHIWWDDDKSYNPSLKSRLTISKDTSKNQVVLTMTNMDPVDTATYYCARRQLGQAGHDAMDYWGQGTTVTVSS VL: DVVMTQSPLSLPVTPGEPASISCRSSQSILHSNGNTYLEWYLQKPGQSPQLLIYKVSNRFSGVPDRFSGSGSGTDFTLKISRVEAEDVGVYYCLQTTRVPLTFGQGTKLEIKR .
Solution: 8.43

Exercise: Item under review: 4b-B10 Fab (Fab, V domains shown) VH: QVTLKESGPALVKPTQTLTLTCTLSGFSLSTSGMGVGWIRQPPGKALEWLAHIWWDDDKSYNPSLKSRLTISKDTSKNQVVLTMTNMDPVDTATYYCARRQLGAHWLDAMDYWGQGTTVTVSS VL: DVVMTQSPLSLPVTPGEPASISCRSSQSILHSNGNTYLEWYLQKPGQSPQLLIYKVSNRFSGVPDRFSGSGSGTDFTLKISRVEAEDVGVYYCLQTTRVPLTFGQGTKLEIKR . Reported Kd?
Solution: 62.8

Exercise: Which measured Kd value corresponds to 4b-D4 Fab (Fab, V domains shown) VH: QVTLKESGPALVKPTQTLTLTCTLSGFSLSTSGMGVGWIRQPPGKALEWLAHIWWDDDKSYNPSLKSRLTISKDTSKNQVVLTMTNMDPVDTATYYCARRQLGMATPDAMDYWGQGTTVTVSS VL: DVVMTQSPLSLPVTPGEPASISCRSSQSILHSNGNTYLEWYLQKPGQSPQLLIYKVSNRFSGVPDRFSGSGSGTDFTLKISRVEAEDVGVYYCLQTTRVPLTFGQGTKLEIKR ?
Solution: 18.6
